- systemTested: CL-K1 (Homo sapiens, UniProt Q9BWP8)
- Sequence (Q9BWP8 26-271): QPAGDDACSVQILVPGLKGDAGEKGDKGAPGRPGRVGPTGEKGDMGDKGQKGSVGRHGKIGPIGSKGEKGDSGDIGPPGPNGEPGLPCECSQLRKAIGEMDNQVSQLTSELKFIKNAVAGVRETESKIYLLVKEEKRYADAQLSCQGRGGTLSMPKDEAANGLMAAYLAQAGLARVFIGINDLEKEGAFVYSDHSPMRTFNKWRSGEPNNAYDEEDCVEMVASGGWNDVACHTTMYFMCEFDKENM
- assayOverview: Glycan-array screen with fluorophore-labelled CL-K1
- Assay type: binding
- Design: For full-length protein, the cDNA was cloned into the polylinker region of expression vector pED; made in house; host or cells: Chinese hamster ovary cells
- cond: glycan array, without Ca2+; ± SE from six replicates
assayEndpoint: relative fluorescence, Without Ca^2+

Recorded relative fluorescence, Without Ca^2+, per entry:
OC[C@H]1O[C@H](O)[C@@H](O)[C@@H](O)[C@@H]1O [compound 8] | 1156
CC(=O)N[C@@H]1[C@@H](O)[C@H](O)[C@@H](CO)O[C@H]1O [compound 20] | 535
OCC1OC(OCC2OC(OCC3OC(O)C(O)C(OC4OC(CO)C(O)C(O)C4O)C3O)C(O)C(OC3OC(CO)C(O)C(O)C3O)C2O)C(O)C(O)C1O (centres unmarked) [compound 310] | 768
OC[C@H]1O[C@@H](O)[C@@H](O)[C@@H](O)[C@@H]1O [compound 18] | 570
CC1OC(O)C(O)C(O)C1O (centres unmarked) [compound 10] | 1097

P. CC(=O)N[C@@H]1[C@@H](O)[C@H](O)[C@@H](CO)O[C@H]1O [compound 21]
Q. OC[C@H]1O[C@@H](O)[C@H](O)[C@@H](O)[C@@H]1O [compound 17]
Data request: Select one. Lower relative fluorescence, Without Ca^2+: P or Q Bench note: the answer is the label of the chosen record.
Data returned: P
(P: 1798, Q: 4473)

I. OC[C@H]1O[C@H](O)[C@H](O)[C@@H](O)[C@H]1O [compound 6]
II. OC[C@H]1O[C@@H](O)[C@H](O)[C@@H](O)[C@H]1O [compound 16]
III. CC1OC(O)C(O)C(O)C1O (centres unmarked) [compound 11]
Data request: Please give the order of these compounds when sorted by relative fluorescence, Without Ca^2+, largest value leading. # list labels per requested ordering
Data returned: II, III, I
(II: 4062, III: 1922, I: 870)
